# test.method.notes: Kidney function, BUN, urine protein to creatinine ratio in cynomolgus monkeys (Example 46)
# Type: in vivo
# condition.info: Day −14 (before start of treatment)
Strand notation (5' to 3'): a small letter for the sugar, then the base; units joined by * are phosphorothioate-linked, units joined directly phosphodiester-linked; [ ] holds rarer units or linkages, { } end groups; capitals alone tell only the bases. e = 2'-O-(2-methoxyethyl) (MOE); [5mC] = 5-methylcytosine; d = 2'-deoxy (DNA)
Can you tell me BUN levels for the items I'm about to list?

Some solved cases for reference:
1) ISIS 449711: 3-8-3, 4-8-4, 2-10-2, 3-10-3 or 4-10-4 MOE microwalk gapmer (Table 46) (antisense eA*e[5mC]*dA*dG*dT*dT*dT*d[5mC]*dT*dG*dG*d[5mC]*eA*eG)	26 mg/dL
2) ISIS 449708: 3-8-3, 4-8-4, 2-10-2, 3-10-3 or 4-10-4 MOE microwalk gapmer (Table 46) (antisense eA*e[5mC]*eA*dG*dT*dT*dT*d[5mC]*dT*dG*dG*e[5mC]*eA*eG)	25 mg/dL
3) ISIS 449709: 3-8-3, 4-8-4, 2-10-2, 3-10-3 or 4-10-4 MOE microwalk gapmer (Table 46) (antisense eG*e[5mC]*eA*e[5mC]*dA*dG*dT*dT*dT*d[5mC]*dT*dG*dG*d[5mC]*eA*eG*eG*e[5mC])	22 mg/dL

Q: What does the record list as BUN levels for ISIS 416858: MOE gapmer, nucleobases 1275 to 1318 of SEQ ID NO: 1 (Table 8) (antisense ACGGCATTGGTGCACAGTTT; MOE gapmer, wing and gap sizes not given here) ?
A: 25 mg/dL

###

# condition.info: rat, in vivo, sc, 50 mg/kg
e = 2'-O-(2-methoxyethyl) (MOE); d = 2'-deoxy (DNA)
Can you tell me hemoglobin for the items I'm about to list?
Numbers only, in g/dL.

Some solved cases for reference:
1) ISIS 416860: MOE gapmer, nucleobases 1275 to 1318 of SEQ ID NO: 1 (Table 8) (antisense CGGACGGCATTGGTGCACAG; MOE gapmer, wing and gap sizes not given here)	14.1
2) ISIS 412225: 5-10-5 MOE gapmer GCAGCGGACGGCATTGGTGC (sugars from the 5' end e5 d10 e5, backbone and methylation of C not given here)	13.4
3) ISIS 416848: MOE gapmer, nucleobases 1275 to 1318 of SEQ ID NO: 1 (Table 8) (antisense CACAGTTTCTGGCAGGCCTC; MOE gapmer, wing and gap sizes not given here)	11.1
4) ISIS 416852: MOE gapmer, nucleobases 1275 to 1318 of SEQ ID NO: 1 (Table 8) (antisense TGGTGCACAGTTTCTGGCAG; MOE gapmer, wing and gap sizes not given here)	13.4

Now consider a different substance.
Q: What does the record list as hemoglobin for ISIS 416856: MOE gapmer, nucleobases 1275 to 1318 of SEQ ID NO: 1 (Table 8) (antisense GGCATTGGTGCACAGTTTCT; MOE gapmer, wing and gap sizes not given here) ?
A: 14.1

###

# Parameters: species or system CD1 mice
# condition.info: mouse, in vivo, sc, 50 mg/kg
readout: Half-Life in the liver (days)
Answers are plain numbers, in days.

1) 416851 (antisense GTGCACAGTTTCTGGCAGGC; 5-10-5 gapmer, further chemistry not given here) [compound 416851]	23.8
2) 412225 (antisense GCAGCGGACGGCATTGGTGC; 5-10-5 MOE gapmer, further chemistry not given here) [compound 412225]	20.7

Q: What does the record list as Half-Life in the liver for 413482 (antisense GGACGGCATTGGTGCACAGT; 5-10-5 MOE gapmer, further chemistry not given here) [compound 413482] ?
A: 19.5
